Where do the numbers come from? From PubChem BioAssay AID1996.

- assaySetup: buffer; pH 7.4; 200.0 µM
Response key: YES means solubility kinetic >= 3 µg/mL; NO means solubility kinetic < 3 µg/mL.

In [3]: df
Out[3]:
                                    molecule  answerlabel
 0              CN(CCc1nnc(N)s1)[N+](=O)[O-]          YES
 1  CN=C1C([N+](=O)[O-])=CC=C2C1=NC1(CCCCC1)N2O          YES
 2  CC(C)c1nc2sc3c(=O)[nH]c(=S)[nH]c3c2c2c1CCCC2          YES
 3            Cc1nc(CCNS(=O)(=O)c2cccnc2)cs1          YES
 4  Cc1ccccc1NCN1C(=O)C2CCC(C)(C1=O)C2(C)C (configuration not stated)          YES
 5      CCN(CC)C(=O)CCS(=O)(=O)c1cccc2nonc12          YES
 6     Cc1cccc(CNS(=O)(=O)c2csc(C(N)=O)c2)c1          YES
 7  CC(C)c1ccc(C(C)NC(=O)C2CCCC2)cc1 (configuration not stated)           NO
 8      S=C(c1ccc(-c2ccc(Cl)cc2Cl)o1)N1CCCC1           NO
 9  COc1ccc(/C=C/C(=O)NCc2ccc3c(c2)OCO3)cc1OC           NO
10  NS(=O)(=O)c1ccc(NC(=O)c2ccc3c(c2)OCO3)cc1           NO

* * *

Reported solubility kinetic values follow for various compounds
- assaySetup: buffer; pH 7.4; 200.0 µM
recordedMetric: solubility kinetic

In [3]: df
Out[3]:
                                   compound      recordedmetric        result
0                        CCCC(=O)NCc1ccncc1  solubility kinetic  > 26.7 µg/mL
1  O=C(COC(=O)c1cnccn1)Nc1ncc(C(F)(F)F)cc1Cl  solubility kinetic    53.4 µg/mL
2    Cc1cccc(OCC(=O)OCC(=O)Nc2ccc(Cl)cn2)c1  solubility kinetic    32.5 µg/mL
3  Cc1ccccc1C(=O)NC1CCCN(Cc2ccccc2F)C1 (stereo unspecified)  solubility kinetic    43.2 µg/mL
4     CCN(CC)C(=O)c1sc2nc(-c3ccccc3)ccc2c1N  solubility kinetic    19.8 µg/mL
5       CCOc1ccc(C(=O)CCC(=O)Nc2ccccc2C)cc1  solubility kinetic     4.6 µg/mL

* * *

Reported log10(solubility kinetic) values follow for various molecules
- assaySetup: buffer; pH 7.4; 200.0 µM
recordedMetric: log10(solubility kinetic) (log10 of the value in µg/mL)

                                    molecule             recordedmetric  numericresult
 0  N/C(CS(=O)(=O)c1ccccn1)=N\OC(=O)c1ccccc1Cl  log10(solubility kinetic)           1.67
 1     CCN(C(=O)COC(=O)/C=C/c1ccco1)C1CCCCC1  log10(solubility kinetic)           1.59
 2        N#Cc1ccccc1N/C=C/C(=O)c1ccc(Cl)cc1  log10(solubility kinetic)          -0.10
 3  CC(SCc1ccccc1)C(=O)Nc1ccccc1F (stereo not given)  log10(solubility kinetic)           1.55
 4            O=C(NC1CC1)c1sc2cc(Cl)ccc2c1Cl  log10(solubility kinetic)           0.08
 5      Cc1ccc2nc(SCC(=O)c3ccccc3)nc(=O)n2c1  log10(solubility kinetic)           1.52
 6  O=C(Cc1ccccc1)NCCc1c[nH]c2ccccc12.O=C(O)C(=O)O  log10(solubility kinetic)           1.68
 7            Cc1ccc(CC(=O)Nc2ccc(Cl)cn2)cc1  log10(solubility kinetic)           0.92
 8        Cc1ccc(NC(=O)CNC(=O)COc2ccccc2)nc1  log10(solubility kinetic)           1.17
 9  O=C(CSc1nc2ccccc2c(=O)n1Cc1ccc(F)cc1)NCC1CCCO1 (stereo not given)  log10(solubility kinetic)           0.61
10     Clc1cccc2c1CCN(Cc1nc(-c3cnccn3)no1)C2  log10(solubility kinetic)           1.53
11                   COC(=O)c1ccc(C(=O)O)nc1  log10(solubility kinetic)           1.33
